Every entry's value here was drawn from patent US10472395B2.

Test system: BT-474 human mammary gland ductal carcinoma cells
Assay: Inhibitory response of test compounds against BT-474 cells (Cell Titer-Glo, 72 h)
Type: cell-based
Settings: Homo sapiens
pIC50: −log10 of the molar value. Numbered stars: 1 amine (or outer) side, 2 acyl side, 3 side chain; on linkers, the order of the positions; unused ones are H or OH. Bridge positions count the residues as written; N and C are the ends. Square brackets hold non-standard residues; d marks the D form. Peptide text beside a SMILES is read from it. ξ: configuration not given here. X2 = C/C(=C\CCC[C@@H](O[*:2])C(C)C)C(=O)[*:1]; X10 = C/C(=C\CCCCO[*:2])C(=O)[*:1]; dNMeF = CN[C@H](Cc1ccccc1)C(=O)O; Ile(3ξ) = CCC(C)[C@H](N)C(=O)O; dHica = CC(C)C[C@@H](O)C(=O)O; dHiv = CC(C)[C@@H](O)C(=O)O; dNMeA = CN[C@H](C)C(=O)O; Aib = CC(C)(N)C(=O)O; Sar = CNCC(=O)O
Would you kindly list pIC50 for each of these molecules?

(Q) Bench note: what pIC50 did C/C=C(\C)[C@H]1OC(=O)[C@@H](C)NC(=O)[C@H](C(C)CC)NC(=O)CN(C)C(=O)[C@@H](Cc2ccccc2)N(C)C(=O)[C@H](C)NC(=O)[C@@H](CC(C)C)OC(=O)/C(C)=C/C[C@H](OC(=O)NCCCOCCOCCOCCCN)[C@@H]1C (some centres unmarked) show?
(A) 6.70 to 7.70

(Q) Would you mind telling me what pIC50 value was observed for CCC(C)[C@@H]1NC(=O)CN(C)C(=O)[C@@H](Cc2ccccc2)N(C)C(=O)[C@H](C)NC(=O)[C@@H](CC(C)C)OC(=O)/C(C)=C/CCCCOC(=O)[C@H](C)NC1=O (some centres unmarked) [Compound 17] ([dHica]A[dNMeF][Sar][Ile(3ξ)]A; linker N-C via X10) ?
(A) 5.00 to 6.70

(Q) Any idea what pIC50 was measured for CCC(C)[C@@H]1NC(=O)CN(C)C(=O)[C@@H](Cc2ccccc2)N(C)C(=O)[C@H](C)NC(=O)[C@@H](CC(C)C)OC(=O)/C(C)=C/CCC[C@H](C(C)C)OC(=O)[C@@H](C)N(C)C1=O (some centres unmarked) [Compound 89] ([dHica]A[dNMeF][Sar][Ile(3ξ)][dNMeA]; linker N-C via X2) ?
(A) 6.70 to 7.70

(Q) Record request: pIC50 value, item C/C=C(\C)[C@H]1OC(=O)[C@@H](C)NC(=O)[C@H](C(C)CC)NC(=O)CN(C)C(=O)[C@@H](Cc2ccc(OC)cc2)N(C)C(=O)[C@H](C)NC(=O)[C@@H](CC(C)C)OC(=O)/C(C)=C/C=C/[C@@H]1C (some centres unmarked)
(A) > 7.70

(Q) Would you mind telling me what pIC50 value was observed for CCC(C)[C@@H]1NC(=O)CN(C)C(=O)[C@@H](Cc2ccccc2)N(C)C(=O)[C@H](C)NC(=O)[C@@H](CC(C)C)OC(=O)/C(C)=C/CCCOC(=O)[C@H](CCCCNC(=O)OC(C)(C)C)NC1=O (some centres unmarked) ?
(A) < 5.00

(Q) State the recorded pIC50 for this entry: "C/C=C(\C)[C@H]1OC(=O)[C@@H](C)NC(=O)[C@H]([C@H](C)CC)NC(=O)CN(C)C(=O)[C@@H](Cc2ccccc2)N(C)C(=O)[C@H](C)NC(=O)[C@@H](CC(C)C)OC(=O)/C(C)=C/C[C@H](OC(=O)NCCCOCCOCCOCCCN=[N+]=N)[C@@H]1C"
(A) > 7.70

(Q) Returns the measured pIC50 for the input molecule. Input: "C/C=C(\C)[C@H]1OC(=O)[C@@H](C)NC(=O)[C@H]([C@H](C)CC)NC(=O)CN(C)C(=O)[C@@H](Cc2ccc(Cl)cc2)N(C)C(=O)[C@H](CCCCNC(=O)OC(C)(C)C)NC(=O)[C@@H](CC(C)C)OC(=O)/C(C)=C/CC[C@@H]1C"
(A) > 7.70

(Q) Reported pIC50 for CCC(C)[C@@H]1NC(=O)CN(C)C(=O)[C@@H](Cc2ccccc2)N(C)C(=O)[C@H](C)NC(=O)[C@@H](C(C)C)OC(=O)/C(C)=C/CCCCOC(=O)C(C)(C)NC1=O (some centres unmarked) [Compound 81] ([dHiv]A[dNMeF][Sar][Ile(3ξ)][Aib]; linker N-C via X10) : what is it?
(A) 5.00 to 6.70
